tested on: 128128-338-R-J1-PDC spheroids, viability % test/control; test: Anticancer human tumor 128128-338-R-J1-PDC patient-derived melanoma cell line growth inhibition [TAK]; settings: curve of first compound; second compound 30 µM; spheroids with HUVEC and MSC;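 note: spheroids exposed to compounds for 7 days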
IC50 overview

CC(C)n1nc(-c2ccc3oc(N)nc3c2)c2c(N)ncnc21 + CC(C)NCC(C(=O)N1CCN(c2ncnc3c2C(C)CC3O)CC1)c1ccc(Cl)cc1
< 0.316 nM
CC(=O)Nc1cccc(-n2c(=O)n(C3CC3)c(=O)c3c(Nc4ccc(I)cc4F)n(C)c(=O)c(C)c32)c1 + CC(C)NCC(C(=O)N1CCN(c2ncnc3c2C(C)CC3O)CC1)c1ccc(Cl)cc1
< 0.0949 nM
CC(C)(C)c1nc(-c2cccc(NS(=O)(=O)c3c(F)cccc3F)c2F)c(-c2ccnc(N)n2)s1 + CC(C)NCC(C(=O)N1CCN(c2ncnc3c2C(C)CC3O)CC1)c1ccc(Cl)cc1
< 31.6 nM
Cc1nc(NC(=O)N2CCCC2C(N)=O)sc1-c1ccnc(C(C)(C)C(F)(F)F)c1 (stereo not given) + CC(C)NCC(C(=O)N1CCN(c2ncnc3c2C(C)CC3O)CC1)c1ccc(Cl)cc1
< 31.6 nM
CC(C)CC(NC(=O)CNC(=O)c1cc(Cl)ccc1Cl)B1OC(=O)CC(CC(=O)O)(C(=O)O)O1 (stereo not given) + CC(C)NCC(C(=O)N1CCN(c2ncnc3c2C(C)CC3O)CC1)c1ccc(Cl)cc1
< 0.316 nM
Cn1cnc2c(F)c(Nc3ccc(Br)cc3Cl)c(C(=O)NOCCO)cc21 + CC(C)NCC(C(=O)N1CCN(c2ncnc3c2C(C)CC3O)CC1)c1ccc(Cl)cc1
< 9.49 nM

[Q] Please supply the value of reported IC50 for the item CC(C)CC(NC(=O)C(Cc1ccccc1)NC(=O)c1cnccn1)B(O)O (stereo not given) + CC(C)NCC(C(=O)N1CCN(c2ncnc3c2C(C)CC3O)CC1)c1ccc(Cl)cc1
[A] < 0.0316 nM

[Q] Return reported IC50. Input molecule: COC1CC2CCC(C)C(O)(O2)C(=O)C(=O)N2CCCCC2C(=O)OC(C(C)CC2CCC(OCCO)C(OC)C2)CC(=O)C(C)C=C(C)C(O)C(OC)C(=O)C(C)CC(C)C=CC=CC=C1C (stereo not given) + CC(C)NCC(C(=O)N1CCN(c2ncnc3c2C(C)CC3O)CC1)c1ccc(Cl)cc1
[A] < 0.316 nM

[Q] Specify measured IC50 for CCCS(=O)(=O)Nc1ccc(F)c(C(=O)c2c[nH]c3ncc(-c4ccc(Cl)cc4)cc23)c1F + CC(C)NCC(C(=O)N1CCN(c2ncnc3c2C(C)CC3O)CC1)c1ccc(Cl)cc1 .
[A] < 316 nM

[Q] Given COc1c(OCCCN2CCOCC2)ccc2c3n(c(=NC(=O)c4cnc(N)nc4)nc12)CCN3 + CC(C)NCC(C(=O)N1CCN(c2ncnc3c2C(C)CC3O)CC1)c1ccc(Cl)cc1 , respond with its IC50.
[A] < 3.16 nM
